molecular target: Mcl-1 protein (UniProtKB primary accession number: Q07820) (Homo sapiens, UniProt Q07820); assay: Inhibition of Mcl-1 by fluorescence polarisation, Method 1; assay type: binding; details: fluorescence polarisation; Method 1, or Method 2; read-out: IC50 (M) Mcl-1 FP
Sequence (Q07820 whole entry): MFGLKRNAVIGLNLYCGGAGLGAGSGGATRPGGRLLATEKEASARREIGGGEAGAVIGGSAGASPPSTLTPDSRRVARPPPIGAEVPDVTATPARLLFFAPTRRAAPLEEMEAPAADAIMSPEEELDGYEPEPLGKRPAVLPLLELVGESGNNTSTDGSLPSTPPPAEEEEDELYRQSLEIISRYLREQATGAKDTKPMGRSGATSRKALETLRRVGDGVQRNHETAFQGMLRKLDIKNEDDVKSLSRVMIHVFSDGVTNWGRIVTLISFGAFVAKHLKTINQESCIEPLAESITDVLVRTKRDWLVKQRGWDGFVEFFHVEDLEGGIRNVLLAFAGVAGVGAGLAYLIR
measured.quantity: IC50 (M)
Your answer is read as M, so omit the unit and give the number.

Which IC50 is listed for CC#Cc1sc2ncnc(OC(Cc3ccccc3OCc3ccnn3C(C)(C)C)C(=O)OCC)c2c1-c1ccc(OCCN2CCN(C)CC2)c(Cl)c1C (stereo not drawn) [Example 792] ?
6.44e-06

Also COCCOc1ccccc1-c1nccc(COc2ccccc2CC(Oc2ncnc3sc(-c4ccc(F)cc4)c(-c4ccc(OCCN(C)C)c(Cl)c4C)c23)C(=O)O)n1 (stereo not drawn) [Example 753] ?
3e-09

Also COc1ccccc1-c1nccc(COc2ccccc2CC(Oc2ncnc3sc(C#CCN4CCOCC4)c(-c4ccc(OCCN5CCN(C)CC5)c(Cl)c4C)c23)C(=O)O)n1 (stereo not drawn) [Example 786] ?
4.95e-09

Also CCc1sc2ncnc(OC(Cc3ccccc3)C(=O)O)c2c1-c1ccc(OCCN(C)C)c(Cl)c1C (stereo not drawn) [Example 407] ?
1.1e-07

Also CCC#Cc1sc2ncnc(OC(Cc3ccccc3OCc3ccnn3CCCC)C(=O)O)c2c1-c1ccc(OCCN2CCN(C)CC2)c(Cl)c1C (stereo not drawn) [Example 612] ?
3.5e-09

Also Cc1c(-c2c(-c3ccc(F)cc3)sc3ncnc(OC(Cc4ccccc4OCC4CCCO4)C(=O)O)c23)ccc(OCCN2CCOCC2)c1Cl (stereo not drawn) [Example 648] ?
1.4e-08

Also Cc1c(-c2c(-c3cc4ccccc4s3)sc3ncnc(OC(Cc4ccccc4)C(=O)O)c23)ccc(OCCN2CCN(C)CC2)c1Cl (stereo not drawn) [Example 497] ?
9.1e-07

Also Cc1c(-c2c(-c3ccc(Cl)s3)sc3ncnc(OC(Cc4ccccc4)C(=O)O)c23)ccc(OCCN2CCN(C)CC2)c1Cl (stereo not drawn) [Example 501] ?
2.8e-07

Also C#Cc1cccc(-c2sc3ncnc(OC(Cc4ccccc4OC)C(=O)O)c3c2-c2ccc(OCCN3CCN(C)CC3)c(Cl)c2C)c1 (stereo not drawn) [Example 547] ?
3.3e-08

Also C#Cc1ccc(-c2sc3ncnc(OC(Cc4ccccc4OC)C(=O)O)c3c2-c2ccc(OCCN3CCN(C)CC3)c(Cl)c2C)o1 (stereo not drawn) [Example 578] ?
3.8e-08

Also COc1ccccc1-c1nccc(COc2ccccc2CC(Oc2ncnc3sc(-c4ccc(OCc5ccncc5)cc4)c(-c4ccc(OCCN5CCN(C)CC5)c(Cl)c4C)c23)C(=O)O)n1 (stereo not drawn) [Example 774] ?
9.48e-10

Also CC#Cc1sc2ncnc(O[C@H](Cc3ccccc3OC)C(=O)O)c2c1-c1ccc(CCCN(C)C)c(Cl)c1C (single isomer, unassigned) [Example 478] ?
5.3e-07

Also COc1ccccc1-c1nccc(COc2ccccc2CC(Oc2ncnc3sc(-c4ccc(OCc5cccnc5)cc4)c(-c4ccc(OCCN5CCN(C)CC5)c(Cl)c4C)c23)C(=O)O)n1 (stereo not drawn) [Example 772] ?
9.48e-10

Also Cc1c(-c2c(-c3ccc(F)nc3)sc3ncnc(OC(Cc4ccccc4OCc4ccnn4CC(F)(F)F)C(=O)O)c23)ccc(OCCN2CCN(C)CC2)c1Cl (stereo not drawn) [Example 693] ?
9.3e-10

Also CCCCn1nccc1COc1ccccc1CC(Oc1ncnc2sc(-c3ccc(NCCOC)nc3)c(-c3ccc(OCCN4CCN(C)CC4)c(Cl)c3C)c12)C(=O)O (stereo not drawn) [Example 620] ?
5.9e-09

Also CCc1sc2ncnc(O[C@H](Cc3ccccc3)C(=O)O)c2c1-c1ccc(OCCN(C)CCO)c(Cl)c1C [Example 411] ?
3.4e-08

Also COc1ccc(-c2sc3ncnc(OC(Cc4ccccc4OCc4ccnc(-c5ccccc5OC)n4)C(=O)O)c3c2-c2ccc(OCCN3CCN(C)CC3)c(Cl)c2C)cc1 (single isomer, unassigned) [Example 761] ?
1.07e-07

Also Cc1c(-c2c(-c3ccc(F)cc3)sc3ncnc(OC(Cc4ccccc4OCc4ccnc(-c5ccccc5OC(C)C)n4)C(=O)O)c23)ccc(OCCN2CCN(C)CC2)c1Cl (stereo not drawn) [Example 723] ?
1.18e-09

Also Cc1c(-c2c(-c3ccc(F)cc3)sc3ncnc(OC(Cc4ccccc4OCc4ccnc(-c5ccccc5F)n4)C(=O)O)c23)ccc(OCCN(C)C2CC2)c1Cl (stereo not drawn) [Example 748] ?
1.21e-08

Also COc1ccccc1CC(Oc1ncnc2sc(-c3cc(C)co3)c(-c3ccc(OCCN4CCN(C)CC4)c(Cl)c3C)c12)C(=O)O (stereo not drawn) [Example 529] ?
1.3e-08

Also Cc1csc(-c2sc3ncnc(OC(Cc4ccccc4)C(=O)O)c3c2-c2ccc(OCCN3CCN(C)CC3)c(Cl)c2C)c1 (stereo not drawn) [Example 495] ?
3.6e-08

Also CCCCOc1ccc(-c2c(CC)sc3ncnc(OC(Cc4ccccc4)C(=O)O)c23)c(C)c1Cl (stereo not drawn) [Example 398] ?
1.5e-06

Also COc1ccccc1-c1nccc(COc2ccccc2CC(Oc2ncnc3sc(-c4ccc(OCc5ccccc5)cc4)c(-c4ccc(OCCN5CCN(C)CC5)c(Cl)c4C)c23)C(=O)O)n1 (stereo not drawn) [Example 762] ?
1.88e-09

Also Cc1c(-c2c(-c3ccncc3)sc3ncnc(OC(Cc4ccccc4)C(=O)O)c23)ccc(OCCN2CCN(C)CC2)c1Cl (stereo not drawn) [Example 507] ?
2.2e-07

###

Answer each item with its documented IC50.
biological target: Mcl-1 protein (UniProtKB primary accession number: Q07820) (Homo sapiens, UniProt Q07820); assay: Inhibition of Mcl-1 by fluorescence polarisation, Method 1; assay type: binding; settings: fluorescence polarisation; Method 1, or Method 2; read-out: IC50 (M) Mcl-1 FP
Please append the unit to your numeric answer.

Which IC50 is listed for COCCCc1sc2ncnc(OC(Cc3ccccc3OCc3ccnc(OC)n3)C(=O)O)c2c1-c1ccc(OCCN2CCN(C)CC2)c(Cl)c1C (stereo not drawn) ?
1.1e-08 M

Also Cc1c(-c2c(-c3ccc(F)cc3)sc3ncnc(OC(Cc4ccccc4OCc4ccnc(-c5ccccc5O)n4)C(=O)O)c23)ccc(OCCN2CCN(C)CC2)c1Cl (stereo not drawn) ?
1.4e-09 M

Also CCCCn1nccc1COc1ccccc1CC(Oc1ncnc2sc(C(F)(F)F)c(-c3ccc(OCCN4CCN(C)CC4)c(Cl)c3C)c12)C(=O)O (stereo not drawn) ?
8e-10 M

Also CCc1sc2ncnc(OC(Cc3ccccc3)C(=O)O)c2c1-c1ccc(OCCN2CCN(C)CC2)cc1C (stereo not drawn) [Example 417] ?
1.5e-07 M

Also COc1ccccc1CC(Oc1ncnc2sc(-c3cc(F)c(F)c(OC)c3)c(-c3ccc(OCCN4CCN(C)CC4)c(Cl)c3C)c12)C(=O)O (stereo not drawn) ?
3.1e-08 M

Also CCc1sc2ncnc(OC(Cc3ccccc3OCC(F)(F)F)C(=O)O)c2c1-c1ccc(OCCN2CCN(C)CC2)c(Cl)c1C (stereo not drawn) ?
1.2e-08 M

###

target: Mcl-1 protein (UniProtKB primary accession number: Q07820) (Homo sapiens, UniProt Q07820); assay: Inhibition of Mcl-1 by fluorescence polarisation, Method 1; type: binding; conditions: partial inhibitors; @ 10 uM test compound
Answer each item with its documented percentage fluorescence polarisation inhibition, Mcl-1 FP.

Which percentage fluorescence polarisation inhibition, Mcl-1 FP is listed for CCOC(=O)[C@@H](Cc1ccccc1OCC(F)(F)F)Oc1ncnc2sc(-c3ccc(F)cc3)c(-c3ccc(OCCN(C)C)c(Cl)c3C)c12 ?
10.7% @ 10 uM

Also CCOC(=O)[C@@H](Cc1ccccc1OCc1ccnn1C(C)C)Oc1ncnc2sc(-c3ccc(F)cc3)c(-c3ccc(OCCN4CCN(C)CC4)c(Cl)c3C)c12 ?
26.95% @ 10 uM

Also CCOC(=O)[C@@H](Cc1ccccc1OCC(F)(F)F)Oc1ncnc2sc(-c3ccc(F)cc3)c(-c3ccc(OCCN4CCN(C)CC4)c(Cl)c3C)c12 ?
50.75% @ 10 uM

Also CCOC(=O)[C@@H](Cc1ccccc1OCc1ccnc(OCC(F)(F)F)n1)Oc1ncnc2sc(-c3ccc(F)cc3)c(-c3ccc(OCCN4CCN(C)CC4)c(Cl)c3C)c12 ?
34.5% @ 10 uM

Also CC#Cc1sc2ncnc(O[C@H](Cc3ccccc3OC)C(=O)O)c2c1-c1cc(N2CCN(C)CC2)c(OC)c(Cl)c1C ?
13.05% @ 10 uM

Also CCOC(=O)[C@@H](Cc1ccccc1OC)Oc1ncnc2sc(-c3ccsc3)c(-c3ccc(OCCN4CCN(C)CC4)c(Cl)c3C)c12 ?
40.2 % @ 10 uM

Also CCOC(=O)[C@@H](Cc1ccccc1OCC(F)(F)F)Oc1ncnc2sc(-c3ccc(F)cc3)c(-c3ccc(OCCN4CCOCC4)c(Cl)c3C)c12 ?
5.9% @ 10 uM

Also CCOC(=O)[C@@H](Cc1ccccc1OCc1cnccn1)Oc1ncnc2sc(-c3ccc(F)cc3)c(-c3ccc(OCCN4CCOCC4)c(Cl)c3C)c12 ?
41.8% @ 10 uM

Also CCOC(=O)[C@@H](Cc1ccccc1OCc1ccnc(OC)n1)Oc1ncnc2sc(-c3ccc(F)o3)c(-c3ccc(OCCN4CCN(C)CC4)c(Cl)c3C)c12 ?
74.85% @ 10 uM

Also CC#Cc1sc2ncnc(O[C@@H](Cc3cccc4occc34)C(=O)O)c2c1-c1ccc(OCCN2CCN(C)CC2)c(Cl)c1C ?
28.3% @ 10 uM

Also COc1ccccc1C[C@@H](Oc1ncnc2sc(-c3ccc(F)cc3)c(-c3ccc(OCCN4CCN(C)CC4)c(Cl)c3C)c12)C(=O)Oc1ccc2c(c1)CCC2 ?
42.4% @ 10 uM

Also CCc1sc2ncnc(O[C@H](Cc3ccccc3)C(=O)O)c2c1-c1ccc(OCCN(C)C)c(Cl)c1C ?
26.25% @ 10 uM

Also CCOC(=O)[C@@H](Cc1ccccc1OCc1ccnc(-c2ccccc2OC)n1)Oc1ncnc2sc(-c3ccc(F)cc3)c(-c3ccc(OCCN4CCN(C)CC4)c(Cl)c3C)c12 ?
66.25% @ 10 uM

Also CCOC(=O)[C@@H](Cc1ccccc1OCc1cnccn1)Oc1ncnc2sc(-c3ccc(F)cc3)c(-c3ccc(OCCN4CCN(C)CC4)c(Cl)c3C)c12 ?
56% @ 10 uM

Also CCOC(=O)[C@@H](Cc1ccccc1OCc1ccnc(OC)n1)Oc1ncnc2sc(-c3ccc(F)cc3)c(-c3ccc(OCCN4CCN(C)CC4)c(Cl)c3C)c12 ?
39.45% @ 10 uM

Also CCOC(=O)[C@@H](Cc1ccccc1OC[C@H]1CCCO1)Oc1ncnc2sc(-c3ccc(F)cc3)c(-c3ccc(OCCN4CCN(C)CC4)c(Cl)c3C)c12 ?
33.2% @ 10 uM

Also CCOC(=O)C(Cc1ccccc1OCC1CCCO1)Oc1ncnc2sc(-c3ccc(F)cc3)c(-c3ccc(OCCN(C)C)c(Cl)c3C)c12 (stereo not drawn) ?
27.95% @ 10 uM

Also CCOC(=O)[C@@H](Cc1ccccc1OCc1ccnn1C(C)C)Oc1ncnc2sc(-c3ccc(F)o3)c(-c3ccc(OCCN4CCN(C)CC4)c(Cl)c3C)c12 ?
67.8% @ 10 uM

Also CCc1sc2ncnc(O[C@H](Cc3ccccc3)C(=O)O)c2c1-c1ccc(OCCN2CCOCC2)c(Cl)c1C ?
38.1% @ 10 uM

Also CCOC(=O)[C@@H](Cc1ccccc1OC)Oc1ncnc2sc(-c3ccc(F)cc3)c(-c3ccc(OCCN4CCN(C)CC4)c(Cl)c3C)c12 ?
11% @ 10 uM

Also CCOC(=O)[C@@H](Cc1ccccc1OC[C@H]1CCCO1)Oc1ncnc2sc(-c3ccc(F)cc3)c(-c3ccc(OCCN4CCOCC4)c(Cl)c3C)c12 ?
14.95% @ 10 uM
